# assayProcedure: NCI Yeast Anticancer Drug Screen. Data for the wt1 strain (AID 149);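 also: 0% = growth of vehicle-treated wt1 cultures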
# reportedConditions: S. cerevisiae wt1 strain (SPY 50644) growth inhibition; at 33.0 µM; active compounds read high
This is part of a sample that, as a whole, favours compounds with a hit. Of some 79,000 tested, about 15% had one in any assay.
Measured growth inhibition values are reported for all entries that follow.
measurementKind: growth inhibition (%)

In [3]: df
Out[3]:
                                    compound  outputunit  recordedmeasurement
 0  O=C1C(=O)c2ccccc2C(O)=C1C(C1=C(O)c2ccccc2C(=O)C1=O)c1ccc(Cl)cc1           %                   32
 1  COC(=O)CCC(NC(=S)N/N=C(\C)c1ccccn1)C(=O)OC (stereo unspecified)           %                   47
 2                      CCCCCOC(=S)SC(=O)OCC           %                   35
 3  Nc1ccn(C2OC(COP(=O)(O)O)C(O)C2O)c(=O)n1 (stereo unspecified)           %                    0
 4  NCCNCCNc1ccc(NCCNCCN)c2c1C(=O)c1c(O)ccc(O)c1C2=O           %                    0
 5          COc1ccc(C(=O)C(CN(C)C)CN(C)C)cc1           %                    3
 6  COc1cc(C2SCC(=O)N2c2ccc(-c3ccc(-n4c(-c5ccccc5)nc5ccccc5c4=O)cc3)cc2)ccc1O (stereo unspecified)           %                   -4
 7  CNC(=O)OCc1c(COC(=O)NC)c(-c2ccc(Cl)cc2)n2c1CCC2           %                  -47
 8  CCOC1Oc2ccccc2-c2nc(N)ncc21 (stereo unspecified)           %                   -1
 9  CCCCc1ccc(-n2c(C)c(COC(=O)NC)c(COC(=O)NC)c2C)cc1           %                   99
10                   CCOC(=N)c1ccc(O)c(OC)c1           %                   -1
